- Test system: Calu-3
- EXPERIMENT SUMMARY: cell viability relative to DMSO; higher = less toxic
- DETAILS: 72 h; 10000 nM
Give cell viability for every item shown.

cell viability recorded for this compound, "CC[C@H](C)[C@H](N)C1=N[C@H](C(=O)N[C@@H](CC(C)C)C(=O)N[C@H](CCC(=O)[O-])C(=O)N[C@H](C(=O)N[C@H]2CCCCNC(=O)[C@H](CC(N)=O)NC(=O)[C@@H](CC(=O)[O-])NC(=O)[C@H](Cc3cnc[nH]3)NC(=O)[C@@H](Cc3ccccc3)NC(=O)[C@H]([C@@H](C)CC)NC(=O)[C@@H](CCCN)NC2=O)[C@@H](C)CC)CS1.[Zn+2]" , is 106%

cell viability recorded for this compound, "CN1CC[C@H](c2c(O)cc(O)c3c(=O)cc(-c4ccccc4Cl)oc23)[C@H](O)C1" , is 37.4%

cell viability recorded for this compound, "CN1CCN(c2ccc(OC(F)(F)F)c(Nc3ncc4c(n3)-c3c(c(C(N)=O)nn3CCO)CC4)c2)CC1" , is 84.7%

cell viability recorded for this compound, "COc1c(C)c2c(c(O)c1C/C=C(\C)CCC(=O)O)C(=O)OC2" , is 49.5%

cell viability recorded for this compound, "O=C1S/C(=C\c2ccc(OCc3cccc(B(O)O)c3)cc2)C(=O)N1Cc1ccc(F)cc1" , is 93.7%

cell viability recorded for this compound, "C[C@]12CCC(=O)C=C1[C@@H]1C[C@@H]1[C@H]1[C@@H]3[C@@H]4C[C@@H]4[C@@]4(CCC(=O)O4)[C@@]3(C)CC[C@@H]12" , is 120%

cell viability recorded for this compound, "O=C(O)CCC(=O)O" , is 97.5%

cell viability recorded for this compound, "C=CC(=O)N1CCC(Oc2cc3c(Nc4ccc(Cl)c(Cl)c4F)ncnc3cc2OC)CC1" , is 18.5%

cell viability recorded for this compound, COc1ccccc1OC(=O)C(C)c1ccc(CC(C)C)cc1 (configuration not stated) [metoxibutropate] , is 107%

cell viability recorded for this compound, "N#C[C@H](O[C@@H]1O[C@H](CO[C@@H]2O[C@H](CO)[C@@H](O)[C@H](O)[C@H]2O)[C@@H](O)[C@H](O)[C@H]1O)c1ccccc1" , is 107%

cell viability recorded for this compound, "COc1cc(N)c(Cl)cc1C(=O)OCCCN1CCCCC1" , is 104%

cell viability recorded for this compound, "O=c1cc(-c2ccccc2)oc2cc(O)cc(O)c12" , is 102%

cell viability recorded for this compound, "Cn1cc(C[C@@H](N)C(=O)O)c2ccccc21" , is 106%

cell viability recorded for this compound, "NC(=O)C1=CN([C@@H]2O[C@H](COP(=O)(O)OP(=O)(O)OC[C@H]3O[C@@H](n4cnc5c(N)ncnc54)[C@H](O)[C@@H]3O)[C@@H](O)[C@H]2O)C=CC1" , is 97.3%

cell viability recorded for this compound, "CO[C@@]1(NC(=O)CSCC#N)C(=O)N2C(C(=O)O)=C(CSc3nnnn3C)CS[C@@H]21" , is 108%

cell viability recorded for this compound, "O=C(O)c1ccc2c(c1)C(=O)N(c1cccc(Oc3ccc([N+](=O)[O-])cc3)c1)C2=O" , is 99%

cell viability recorded for this compound, "O=C(c1c2ccccc2cc2ccccc12)N1CCC(N2CCC[C@@H](C(=O)N3CCOCC3)C2)CC1" , is 117%
